- Tested on: 556581-035-R-J1-PDC complex spheroid growth;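 note: compound exposure lasted 7 days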
- test name: Anticancer human tumor 556581-035-R-J1-PDC patient-derived ovarian carcinoma cell line growth inhibition [AhR]; active = viability on the fitted dose curve at most 10% of control; inactive = the rest
- cond: second compound 0.316 µM; first compound 3.16 µM
Possible outcomes: y for active, n for inactive

compound	label
COc1cccc2c1C(=O)c1c(O)c3c(c(O)c1C2=O)CC(O)(C(=O)CO)CC3OC1CC(N)C(O)C(C)O1 (stereo unspecified) + CC(CO)NC(=O)c1cc(-c2ccc(Cl)cc2)nn(-c2cnn(C)c2)c1=O	y
O=C(C=Cc1cccc(S(=O)(=O)Nc2ccccc2)c1)NO + CC(CO)NC(=O)c1cc(-c2ccc(Cl)cc2)nn(-c2cnn(C)c2)c1=O	n
O=C(C=Cc1cccc(S(=O)(=O)Nc2ccccc2)c1)NO + Cc1cncc(-c2nc(NCCc3c[nH]c4ccccc34)c3ncn(C(C)C)c3n2)c1	n
CC1COCCN1c1cc(C2(S(C)(=N)=O)CC2)nc(-c2ccnc3[nH]ccc23)n1 (stereo unspecified) + Cc1ccccc1N=Nc1ccc(NC(=O)c2ccnn2C)c(C)c1	n
O=C(c1cc(Cc2n[nH]c(=O)c3ccccc23)ccc1F)N1CCN(C(=O)C2CC2)CC1 + CC(CO)NC(=O)c1cc(-c2ccc(Cl)cc2)nn(-c2cnn(C)c2)c1=O	n
Nc1ccccc1NC(=O)c1ccc(CNC(=O)OCc2cccnc2)cc1 + Cc1cncc(-c2nc(NCCc3c[nH]c4ccccc34)c3ncn(C(C)C)c3n2)c1	n
